assay: yeast display, Sf9 membrane polyspecificity reagent, FACS + sequencing; frameworks hold sequencing errors
Readout label: polyreactivity (PSR sort gate)

Field: example entries. Status: answers known.
Record sequence | polyreactivity (PSR sort gate)
QVQLVESGGGVVQAGGSLRLSSAASGRIIRYYTMGWYRQAPGKERELVAAIRTYGGRTYYADSVKGRFTISRDNAKNSVYLQMNSLKPEDTAVYYCAADGGRPRYDSWGQGTQVTVSS | high polyreactivity
QVQLVESGGGLVQAGGSLRLSCAASGRIFADYAMGWNRHAPGKQRELVAAITWSGDRTYYADSVKGRFTISRDNAKNTVYLQMNSLKPEDTAVYYCAARARLRRYNYWGQGTQVTVSS | high polyreactivity
QVQLVESGGGLVQAGGSLRLSCAASGGILRGYAMGWYRQAPGKERELVAAISRGGRTNYADSVKGRFTISRDNAKNTVYLQMNSLKPEDTAVYYCTALSAFQVDNYDYWGQGTQVTVSS | high polyreactivity
QVQLVESGGGLVQAGGSLRLSCAASGYTFTINAMGWYRQAPGKERELVAAISWNGGRTYYADSVKGRFTISRDNAKNTDYVQMNSLQPEDTAVCYCNADTYSAGDYWGQGTQVTVSS | high polyreactivity

Now look at this entry.
Task: // polyreactivity (PSR sort gate) lookup, key: QVQLVESGGGLVQAGGSLRLSCAASGSIFTYNVMGWYRQAPGKERELVDAISWDGDSTYYSDSVKGRFTISRDNEKNTVYLQMKSLKQDDTAVYYCAADVHEKFQYDYWGQGNQVTVSS
Output: high polyreactivity

###

assay: yeast display, Sf9 membrane polyspecificity reagent, FACS + sequencing; frameworks hold sequencing errors
Readout label: polyreactivity (PSR sort gate)

Field: example entries. Status: answers known.
Record sequence | Reported
QVQLVESGGGLVQAGGSLRLSCAATGSTFGAYAMGWYRQAPGKERELVAAITRRSGSTYYADSVKGRFTISRDNAKNTVYLQMNSLKPEDTAVYYCAARASTIMGSWGQGTQVTVSS | high polyreactivity
QEQLQESGGGLVQACGSLRLSCAASGYIFSHQYMGWYRQAPGKERELVASISPGATTNYADSVKGRFTISRDNAKNTVYLQMNSLKPEDTAVYYFAVYKILDRRLSYWGQGTQVTVSC | high polyreactivity
QVQLVESGGGLVQAGGSLRLSCAASGITFDYYDMGWYRQAPGKERELVATITSDGSTYYADSVKGRFTISRDNAKNTVYLQMNSLKPEDTAVYYCNARRRTVPYRYDYWGQGTQVTVSS | high polyreactivity
QVQLVESGGGLVQAGGSLRLSCAASGNTFPSYAMGWYRQAPGKERQLVAAITSGGRTYYADSVKGRFTISRDNAKNTVYLQMNSLKPEDTAVYYCAADWVVRYPWYRYYYWGPGTQVTVSS | high polyreactivity
QVQLVESGGVLVQAGGSLRLSCAASGRIFSNYAMGWYRQAPGKEWELVATIRKGGGSTYYADSVKGRFTISRDNAKNTVYLQMNSLKPEDTAVYYCAADGSLQTRRFDYWGQGTQVTVSS | high polyreactivity

Task: // polyreactivity (PSR sort gate) lookup, key: QVHLVEAGGGLVQAGGSLRLSCAASACTFWPYARGLSSQAPGQDTELVAAMTSSGSTNYADSVKGRFTITRDNAKNTDYLQMNSLKPEDTAVNYCAADHRPSRFQSSVHLYYYWGQGTQVTVSS
Output: low polyreactivity

Task: // polyreactivity (PSR sort gate) lookup, key: QVQLVESGGGLVQAGGSLRLSCAASGIIFGYNAMGLYRQAHGKERELVASIDVSGGITYYADSVKGRFTISRDNAKNTVYLQMNSLKPEDTAVYYCAAAVYGRGSPHYYWGEGTQVTVSS
Output: high polyreactivity

Task: // polyreactivity (PSR sort gate) lookup, key: QVQLVESGGGLVQAGGSLRLSCAASGRTFEWYAMGWYRPAPGKERELVAVISSGGSTNYADSVKGRFTISRDNAKNTVYLQMNSLIPEDTAVYYCAVLQARDGYWLYLYDYWGQGTQVTVSS
Output: low polyreactivity

Task: // polyreactivity (PSR sort gate) lookup, key: QVQLVESRGGIVQAGGSLRLSCAASGSIFEQYAMGLYRQAPGKERELVAAISKRGTSTNYADSVKGRVTISRDNAKNTVYLQMNSLKPEDTAVYYCNADSRHRRNYDYWGQGTHVTVSS
Output: high polyreactivity

Task: // polyreactivity (PSR sort gate) lookup, key: QVQLVESGGGLLQAGGSLRLSCAASGSIFTAYAMGWYRQAPGKESELVAAIDDSGDSTYYADSVKGRFTISRDNAKHTVYLQMNSLKTEDTAVYYCKAEYRVNKEYDDWGQGTQVTVSS
Output: low polyreactivity

Task: // polyreactivity (PSR sort gate) lookup, key: QVQLVESGGGLVQAGGSLRLICAASGIIFRWYTMGWYRQAPGKERELVAAISTSTGSTYYADSVKGRFTISRDNAKNTVYLQMNSLKPEDTAVYYCAADYAYWNYESYYWGQGTQVTVSS
Output: high polyreactivity
